- Test system: Karpas299
- Method summary: MTT antiproliferative assay, Karpas299 cells
- Assay type: cell-based
- Assay conditions: Homo sapiens, KARPAS-299
Quantity measured: IC50 (µg/mL)

[A] CC1(C)C2CC[C@]3(C)[C@H](C(=O)C=C4[C@@H]5C[C@@](C)(C(=O)O)CC[C@]5(C)CC[C@]43C)[C@@]2(C)CC[C@@H]1OC(=O)Nc1ccc(OC(F)(F)F)cc1 (some centres unmarked)
[B] CC1(C)C2CC[C@]3(C)[C@H](C(=O)C=C4[C@@H]5C[C@@](C)(C(=O)O)CC[C@]5(C)CC[C@]43C)[C@@]2(C)CC[C@@H]1OC(=O)Nc1cccc(C(F)(F)F)c1 (some centres unmarked)
[C] C[C@@H](Oc1cc(-c2cnn(C3CCNCC3)c2)cnc1N)c1c(Cl)ccc(F)c1Cl [Crizotinib, reference compound]
[D] CC1(C)C2CC[C@]3(C)[C@H](C(=O)C=C4[C@@H]5C[C@@](C)(C(=O)O)CC[C@]5(C)CC[C@]43C)[C@@]2(C)CC[C@@H]1OC(=O)Nc1ccc(Cl)c(Cl)c1 (some centres unmarked)
Enquiry: Order all 4 entries above by recorded IC50, highest first, lowest last. As an answer, provide the labels arranged in the order called for.
Return: A, D, B, C
